meta.source: the supplement of paper PMC9233669

- Test system: biotinyl-Trp-oxazolone
- experimentDescription: self-aminoacylation, catalytic enhancement (BWO) (fold over background); higher = more active; k-Seq, kA / k0A0; sequences stand for … in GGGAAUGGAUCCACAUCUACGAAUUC…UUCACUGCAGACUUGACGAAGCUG
Variants at the floor of the assay were thinned out.
Entries and their self-aminoacylation
Give the value as a plain number.

sequenceentry="AAGUUUGUUAAUAGUCGUAAG [Fam3.1 aminoacylation ribozyme variant]" value=0.911
sequenceentry="CUUCAACUAGGUCAUCGGGUG [Fam2.2 aminoacylation ribozyme variant]" value=4.93
sequenceentry="CCAGUCUUCAAGCAAUCGGUC [Fam1B.1 aminoacylation ribozyme variant]" value=38.6
sequenceentry="AUUCAACUAGGUCAUCCGGUG [Fam2.2 aminoacylation ribozyme variant]" value=6.62
sequenceentry="CCACACUUCAAGCAAUCGGUG [Fam1B.1 aminoacylation ribozyme variant]" value=5.45
sequenceentry="CUACACUUCAGGCAAUCGGUC [Fam1B.1 aminoacylation ribozyme variant]" value=0.839

# get_value(readout= self-aminoacylation, system= biotinyl-Trp-oxazolone) for AUUCAUCUAGGGCAUCGGGUG [Fam2.2 aminoacylation ribozyme variant]
2.7

# get_value(readout= self-aminoacylation, system= biotinyl-Trp-oxazolone) for AUGCAGCUAGGUCAUCGGGUG [Fam2.2 aminoacylation ribozyme variant]
3.92

# get_value(readout= self-aminoacylation, system= biotinyl-Trp-oxazolone) for AUUCACGUAGGUGAUCGGGUG [Fam2.2 aminoacylation ribozyme variant]
3.33

# get_value(readout= self-aminoacylation, system= biotinyl-Trp-oxazolone) for ACACACUUCAAGCAAUCGGUG [Fam1B.1 aminoacylation ribozyme variant]
9.81

# get_value(readout= self-aminoacylation, system= biotinyl-Trp-oxazolone) for AGUCACCUAUGUCAUCGGGUG [Fam2.2 aminoacylation ribozyme variant]
4.85
